# assay_text: Plasma unlabeled fatty acid concentrations
# Type: in vivo, human
# recorded_conditions: subject S01; unlabeled; mean of 17 time points; low linoleate diet
reported_endpoint: Fatty acid concentration in plasma total lipids (mean) (nmol/mL)
Numeric only. Scale: nmol/mL

Consider the reported Fatty acid concentration in plasma total lipids (mean) for these compounds:
mol_smiles: CCCCCCCCCCCCCCCC(=O)O
assay_value: 1265
//
mol_smiles: CCCCC/C=C\C/C=C\C/C=C\CCCCC(=O)O
assay_value: 15.3
//
mol_smiles: CCCCCC/C=C\CCCCCCCC(=O)O
assay_value: 153
//
mol_smiles: CCCCCCCC/C=C\CCCCCCCCCCCCCC(=O)O
assay_value: 48.1
//
mol_smiles: CCCCC/C=C\C/C=C\C/C=C\CCCCCCC(=O)O
assay_value: 98.2

Q: Entry `CCCCC/C=C\C/C=C\C/C=C\C/C=C\C/C=C\CCC(=O)O` : reported Fatty acid concentration in plasma total lipids (mean) = ?
A: 16.8
